For each of the compounds below, state its IC50.
- Test system: Trichophyton mentagrophytes
- TEST_DESCRIPTION: Antifungal activity against Trichophyton mentagrophytes by broth microdilution method
- Assay type: functional, organism-based
- CONDITION_NOTES: read-out: pIC50 (converted)
Numbers only, in µM.

Illustrative cases are given below, each with its answer.
CC(C)(C)OC(=O)N(Cc1ccccc1)CC(OS(=O)(=O)c1ccc2ccccc2c1)c1ccccc1 (configuration not stated)    2.12
CC(C)(C)OC(=O)N(Cc1ccccc1)CC(OS(=O)(=O)c1ccc([N+](=O)[O-])cc1)c1ccccc1 (configuration not stated)    5.73
CC(C)(C)OC(=O)N(Cc1ccccc1)CC(OS(=O)(=O)c1ccc(C#N)cc1)c1ccccc1 (configuration not stated)    9.48

Would you mind giving IC50 for every compound in the list below?
1. CC(C)c1cc(C(C)C)c(S(=O)(=O)OC(CN(Cc2ccccc2)C(=O)OC(C)(C)C)c2ccccc2)c(C(C)C)c1 (configuration not stated)
2. Cc1cc(C)cc(S(=O)(=O)OC(CN(Cc2ccccc2)C(=O)OC(C)(C)C)c2ccccc2)c1 (configuration not stated)
3. O=S(=O)(OC(CNCc1ccccc1)c1ccccc1)c1ccc(F)cc1 (configuration not stated)
4. COc1ccc(C(CN(Cc2ccccc2)C(=O)OC(C)(C)C)OS(=O)(=O)c2c(Cl)cccc2Cl)cc1 (configuration not stated)
5. O=S(=O)(OC(CNCc1ccccc1)c1ccccc1)c1c(Cl)cccc1Cl (configuration not stated)

6.11
12.6
10.2
13.6
44.8
